Assay: AUC (0 to 24 hrs) in beagle dog at 5 mg/kg, po
Assay type: ADME, organism-based, Canis lupus familiaris
Parameters: time < 24 hr, dose 5 mg/kg, route oral
Details: plasma
Reported property: AUC(0-t) at 24 h (ng·h/mL)

O=C(c1nc2c(C(F)(F)F)cc(C3CC3)cn2c1Cl)N1CCN([C@H]2CC[C@H](O)CC2)C(=O)C1 | 52000

---

System: Hepatitis C virus
Assay: Antiviral activity against HCV genotype 1b expressing NS4B H94N mutant stably infected in human HuH7 cells after 48 hrs by luciferase reporter gene assay
Type: functional, organism-based, Hepacivirus hominis
Details: Huh-7, 48 h
pEC50: −log10 of the molar value.
Reported property: pEC50

O=C(c1nc2c(C(F)(F)F)cc(C3CC3)cn2c1Cl)N1CCN([C@H]2CC[C@H](O)CC2)C(=O)C1 | 6.70

---

Consider the following molecules and their measured bioavailability readings.
Experiment: Oral bioavailability in Sprague-Dawley rat at 5 mg/kg
Assay type: ADME, organism-based
Conditions: in vivo
Reported property: bioavailability (%)

O=C(c1nc2c(C(F)(F)F)cc(-c3ccoc3)cn2c1Cl)N1CCC(N2C(=O)COC2=O)CC1 | 60
O=C(c1nc2c(C(F)(F)F)cc(-c3ccoc3)cn2c1Cl)N1CCC(N2CCOC2=O)CC1 | 60
O=C(c1nc2c(C(F)(F)F)cc(C3CC3)cn2c1Cl)N1CCN([C@H]2CC[C@H](O)CC2)C(=O)C1 | 98

---

Experiment: Clearance in beagle dog at 1 mg/kg, iv
Assay type: ADME, organism-based, Canis lupus familiaris
Parameters: dose 1 mg/kg, route intravenous
Conditions: in vivo
Reported property: clearance (mL/min/kg)

O=C(c1nc2c(C(F)(F)F)cc(C3CC3)cn2c1Cl)N1CCN([C@H]2CC[C@H](O)CC2)C(=O)C1 | 1.1

---

Test system: Hepatitis C virus
Assay: Antiviral activity against HCV genotype 1b expressing NS4B H94R mutant transiently infected in human HuH7 cells after 48 hrs by luciferase reporter gene assay
Format: functional, organism-based, Hepacivirus hominis
Settings: Huh-7, 48 h
pEC50: −log10 of the molar value.
Reported property: pEC50

O=C(c1nc2c(C(F)(F)F)cc(C3CC3)cn2c1Cl)N1CCN([C@H]2CC[C@H](O)CC2)C(=O)C1 | 7.28

---

Consider the following compounds and their measured solubility readings.
Experiment: Solubility of the compound
Format: physicochemical
Reported property: solubility

O=C(c1nc2c(C(F)(F)F)cc(-c3ccoc3)cn2c1Cl)N1CCN([C@H]2CC[C@H](O)CC2)C(=O)C1 | > 500 µM
CN1CCN(C(=O)c2nc3c(C(F)(F)F)cc(-c4ccoc4)cn3c2Cl)CC1=O | > 500 µM
CC1(C)CN(C2CCN(C(=O)c3nc4c(C(F)(F)F)cc(-c5ccoc5)cn4c3Cl)CC2)C(=O)O1 | > 500 µM
O=C(c1nc2c(C(F)(F)F)cc(C3CC3)cn2c1Cl)N1CCN([C@H]2CC[C@H](O)CC2)C(=O)C1 | > 500 µM
O=C(c1nc2c(C(F)(F)F)cc(-c3ccoc3)cn2c1Cl)N1CCC(c2cccs2)C1 (racemic) | < 15 µM
O=C(c1nc2c(C(F)(F)F)cc(-c3ccoc3)cn2c1Cl)N1CCC(c2ccccc2F)C1 (racemic) | < 15 µM
O=C(c1nc2c(C(F)(F)F)cc(-c3ccoc3)cn2c1Cl)N1CCN(C2CCCCC2)C(=O)C1 | > 500 µM
CC1(C)COC(=O)N1C1CCN(C(=O)c2nc3c(C(F)(F)F)cc(-c4ccoc4)cn3c2Cl)CC1 | > 500 µM
O=C(c1nc2c(C(F)(F)F)cc(-c3ccoc3)cn2c1Cl)N1CCC(N2CCCC2=O)CC1 | > 500 µM
